Where these numbers come from: ChEMBL document CHEMBL1201862

Test system: OVCAR-4
Test description: NCI tumour cell line growth inhibition, 48 h
Active and inactive are the calls of the source. Cut-off read from the data, not from the text of the source: active = GI50 up to about 1.1 µM and inactive = higher.
Each entry below lists one item and its recorded GI50 value.

# Compound, GI50
data = [
    ("COc1c(C)c(C/C=C(\\C)CC/C=C(\\C)CC/C=C(\\C)CCC=C(C)C)c(OC)c(OC)c1OC", "> 100 µM (inactive)"),
    ("CC1(c2ccc(Cl)cc2)C2C(=O)NC(=O)C1C(=O)NC2=O (configuration not stated)", "> 100 µM (inactive)"),
    ("O=S(=O)(O)c1ccc2c(/N=N/c3ccccc3)c(O)ccc2c1", "> 100 µM (inactive)"),
    ("Cn1c(=O)c2c(no[n+]2[O-])n(C)c1=O", "59.8 µM (inactive)"),
    ("CN(C)CCOc1ccc(I)cc1Cc1ccccc1", "11.8 µM (inactive)"),
    ("CNC(=O)OCc1nc(SC)n(C)c1COC(=O)NC", "129 µM (inactive)"),
    ("Brc1ccc2c3c1[C@@H]1O[C@@H]1c1cccc(c1-3)[C@@H]1O[C@H]21", "17.9 µM (inactive)"),
    ("COc1ccc(N2C(=O)/C(=C/c3ccc(N(CCC#N)CCC#N)cc3)N=C2c2ccccc2)c(OC)c1", "> 100 µM (inactive)"),
    ("CN1C(c2ccccc2)CC(C)(O)CC1c1ccccc1 (configuration not stated)", "> 100 µM (inactive)"),
    ("COC(=O)c1csc([C@@H](OC(=O)[C@H](C)[C@H](CCCC(C)(Cl)Cl)OC(=O)c2csc([C@H](O)CO)n2)C(C)C)n1", "10 µM (inactive)"),
    ("CC(=O)N(O)[C@@H]1CC[C@H](n2cnc3c(N)ncnc32)C1", "> 100 µM (inactive)"),
    ("CC(C)OC(=O)c1cc(NC(=S)OC(C)C)ccc1Cl", "23.9 µM (inactive)"),
    ("COc1ccc2c3ccc4c(c3n(C)c2c1)C(=O)C=CC4=O", "29.6 µM (inactive)"),
    ("CN(C1=NS(=O)(=O)N=C(N(C)c2ccccc2)O1)c1ccccc1", "20.8 µM (inactive)"),
    ("CN(C)CCCOC(=O)C(O)(Cc1ccccc1)C1CC1 (configuration not stated)", "> 100 µM (inactive)"),
    ("NC(Cc1cccnn1)C(=O)O (configuration not stated)", "> 100 µM (inactive)"),
    ("Cc1ccc(OCC2OC(C#N)C(Oc3ccc(C)cc3)C2Oc2ccc(C)cc2)cc1 (configuration not stated)", "> 100 µM (inactive)"),
    ("Cc1ccc(/N=N/C(=N\\c2ccc(Cl)cc2)c2ccc(N(CCC#N)CCC#N)cc2)cc1", "51.4 µM (inactive)"),
    ("O=c1ccc2cc(O)c(O)cc2o1", "97.3 µM (inactive)"),
    ("O=C1CSC2=NC3=C(COC/C3=C\\c3ccc(F)cc3)C(c3ccc(F)cc3)N12 (configuration not stated)", "50.9 µM (inactive)"),
    ("CCCCCC1=C2C(c3ccc(OC)cc3)=C(N)C(c3ccc(OC)cc3)=C3NC(=O)C(C=C1)C32 (configuration not stated)", "23.2 µM (inactive)"),
    ("OC1OC2COC(c3ccccc3)OC2C(O)C1O (configuration not stated)", "> 100 µM (inactive)"),
]
